# MDCK-MDR1: % Recov A-B per entry
System: MDR1-MDCK cell monolayers
test-details: MDCK-MDR1 permeability assay (BBB penetration potential)
Assay type: in vitro ADME
run-parameters: dog, MDCK-MDR1, 120 min, 5 μM, pH 7.4
readout-kind: MDCK-MDR1: % Recov A-B (%)

# molecule, recorded-result
measured = [
    ("Oc1cc(-n2ccnc2)ccc1-c1ccc(O[C@H]2C[C@@H]3CC[C@@H](N3)[C@H]2F)nn1 (single isomer, unassigned)", 61),
    ("Cn1cc(-c2ccc(-c3ccc(O[C@@H]4C[C@H]5COC[C@H](N5)[C@@H]4F)nn3)c(O)c2)cn1 (single isomer, unassigned)", 82),
    ("Oc1cc(-c2ccc3nccn3c2)ccc1-c1ccc(O[C@H]2C[C@@H]3CCC[C@@H](N3)[C@H]2F)nn1 (single isomer, unassigned)", 43),
]

----------
System: MDR1
test-details: MDCK-MDR1 permeability assay (BBB penetration potential)
Assay type: in vitro ADME
run-parameters: dog, MDCK-MDR1, pH 7.4, MDCK-MDR1: Efflux
Fulfilled if efflux ratio at 120 min, 5 μM is below 6. Not fulfilled if not; exact matches included in Not fulfilled.

# compound, assay-system, label-value
records = [
    ("Cn1cnc2cc(O)c(-c3ccc(O[C@H]4C[C@]5(C)CCC[C@@](C)(N5)[C@H]4F)nn3)cc2c1=O (single isomer, unassigned)", "MDR1", "Not fulfilled"),
    ("Oc1cc(-n2ccc(F)n2)ccc1-c1ccc(O[C@@H]2C[C@H]3CCC[C@H](N3)[C@@H]2F)nn1 (single isomer, unassigned)", "MDR1", "Fulfilled"),
    ("Oc1cc(-n2cccn2)ccc1-c1ccc(O[C@H]2C[C@@H]3CC[C@@H](N3)[C@H]2F)nn1 (single isomer, unassigned)", "MDR1", "Fulfilled"),
    ("CNC(=O)c1ccc2cc(-c3ccc(O[C@@H]4C[C@H]5CCC[C@H](N5)[C@@H]4F)nn3)c(O)cc2n1 (single isomer, unassigned)", "MDR1", "Not fulfilled"),
    ("Oc1cc(-n2ccnc2)ccc1-c1ccc(O[C@@H]2C[C@H]3CC(F)(F)[C@@H](C2)N3)nn1 (single isomer, unassigned)", "MDR1", "Fulfilled"),
]

----------
System: Huntingtin (HTT) transcripts
test-details: Quantitative splicing assay (HTT), qPCR
Assay type: cell-based
run-parameters: Homo sapiens; GM04724 (CAG 70/20) Huntington's disease patient lymphoblasts, 24 h, qPCR HTTex49_50; read-out: HTT Potency - Splicing: E49-50 EC50 (average)
EC50 by entry:

# molecule, EC50
rows = [
    ("Cn1ccc2cc(-c3ccc(O[C@@H]4C[C@H]5CC[C@H](N5)[C@@H]4F)nn3)c(O)cc2c1=O (single isomer, unassigned) [126-ENT2]", "501 to 10000 nM"),
    ("Cn1ccc2cc(O)c(-c3ccc(O[C@H]4C[C@@H]5CCC[C@@H](N5)[C@H]4F)nn3)cc2c1=O (single isomer, unassigned) [128-ENT1]", "51 to 100 nM"),
    ("Cn1cc(-c2ccc(-c3ccc(O[C@@H]4C[C@H]5CC[C@H](N5)[C@@H]4F)nn3)c(O)c2)cn1 (single isomer, unassigned) [60-ENT1]", "51 to 100 nM"),
]

src = patent US12522597B2
